assay_target: T1, CD47 receptor (UniProt Q08722 19-323, limits assumed)
T1 construct: whole, on cells; The assays used a whole MEC-1 cell membrane preparation, not purified CD47; also called membrane preparation from MEC-1 cells
T1 sequence (Q08722 19-323 limits assumed): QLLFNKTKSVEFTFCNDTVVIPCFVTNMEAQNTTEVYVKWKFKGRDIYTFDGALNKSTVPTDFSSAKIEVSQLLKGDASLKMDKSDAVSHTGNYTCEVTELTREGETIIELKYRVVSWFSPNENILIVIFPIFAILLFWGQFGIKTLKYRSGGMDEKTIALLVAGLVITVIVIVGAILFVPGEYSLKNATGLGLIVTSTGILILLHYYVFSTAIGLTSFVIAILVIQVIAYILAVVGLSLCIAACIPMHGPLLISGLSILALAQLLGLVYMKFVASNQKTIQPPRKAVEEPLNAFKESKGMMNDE
test_description: column Kd (OR); biolayer interferometry on Octet RED96, biotinylated MEC-1 membrane preparation on SSA biosensors
readout_type: Kd (µM)
Your answer should be a plain number; it is taken to be in µM.

[ask] Could you tell me which Kd is on file for KRFYVVMWKK ((D)-Lys at position 1 and (D)-Lys at position 10, also called 4(PKHB1)) [PKHB1, H-(D)K R F Y V V M W K (D)K-OH] ?
[reply] 43

[ask] For the binder shown here, KRFYVVMWKK (Decapeptide that mimics the C-terminal domain of TSP-1) [4N1K] , give the reported Kd.
[reply] 19

[ask] Fill in the blank: the reported Kd of Ac-KRFYVVMWKK-NH2 [peptide 2, Ac-KRFYVVMWKK-NH2] is ____.
[reply] 40
